Target: T1, human IL-1RAcP on 293T/17-FR cells (human, UniProt Q9NPH3 21-570)
T1 sequence (looked up): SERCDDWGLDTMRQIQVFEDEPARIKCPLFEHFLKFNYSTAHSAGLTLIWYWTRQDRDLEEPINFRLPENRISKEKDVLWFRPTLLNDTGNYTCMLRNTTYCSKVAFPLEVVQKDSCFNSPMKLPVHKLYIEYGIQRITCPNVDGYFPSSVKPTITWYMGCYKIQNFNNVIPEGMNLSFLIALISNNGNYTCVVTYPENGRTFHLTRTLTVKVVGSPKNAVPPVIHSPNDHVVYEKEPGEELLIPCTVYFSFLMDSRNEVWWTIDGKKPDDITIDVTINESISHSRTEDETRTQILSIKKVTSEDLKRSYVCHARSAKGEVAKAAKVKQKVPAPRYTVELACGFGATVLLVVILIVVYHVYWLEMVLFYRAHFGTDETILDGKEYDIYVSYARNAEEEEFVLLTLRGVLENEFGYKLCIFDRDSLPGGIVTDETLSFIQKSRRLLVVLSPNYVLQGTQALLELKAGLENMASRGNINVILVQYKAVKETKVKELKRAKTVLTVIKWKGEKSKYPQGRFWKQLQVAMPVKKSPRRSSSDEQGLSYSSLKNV
Experiment: cell-based or functional assay
readout name: functional reporter gene assay (% inhibition), 5 µg/mL mAb (%)
The reply should contain only the number, in %.

>>> result_number("P013.S.02.B.G04 (antibody, V domains shown, rabbit monoclonal antibody; also called P013.A.00015.A11) VH: QSLEESGGRLVTPGTPLTLTCTVSGFSLSRCAMIWVRQAPGKGLEWIGFIGRGGSTWYASWVNGRFTISKTSTTVDLKITSPTTEDTATYFCARDGDYSDYYTFDLWGQGTLVTVSS VL: DVVMTQTPASVSERVGGTVTIKCQASQSIGSNLAWYQQKPGQPPKLLIYGASNLESGVPSRFSGSGSGTEFTLSISGVQSADAATYYCQCSGYDTTGVFPFGGGSEVVVK")
-18

Now look at this one.
Request: Tell me the measured functional reporter gene assay (% inhibition), 5 µg/mL mAb of P013.S.02.B.A01 (antibody, V domains shown, rabbit monoclonal antibody; also called P013.A.00087.A07) VH: QSVEESGGRLVTPGTPLTLTCTVSGFSLSSYYMSWVRQAPGKGLEWIGYIYAAGPITYYATWAKGRFTISKTSTTVDLKITSPTTEDTATYFCVRDGSGSGTYGYNGMDLWGPGTLVTVSS VL: AYDMTQTPASVEAAVGGTVTIKCQASQSISNWLAWYQQKPGQRPKLLIYRASTLASGVSSRFKGSGSGTQFTLTISGVESADAATYYCQQGASTTDVDNVFGGGTEVVVK , please.
Response: 87
